Assay Metric: melting point (°C)

Examples with answers:
INSERT INTO assay_data (compound, observed_value) VALUES
  ('S=C1CCCC(=S)N1', 103),
  ('O=C1c2ccccc2C(=O)N1C1CC=CCC1 (stereo not drawn)', 114),
  ('O=C(O)CCC(C(=O)O)N1C(=O)c2ccccc2C1=S (stereo not drawn)', 157);

A. O=C1CCCC(=S)N1
B. O=C1CCC(N2C(=O)c3ccccc3C2=S)C(=O)N1 (stereo not drawn)
QUERY: Lowest melting point? choose A or B State the label of the item chosen.
RESULT: A

----------
- Tested on: PBMC
- Assay Protocol: Cellular viability of PBMCs by MTS assay
- Assay type: cell-based, human
- Settings: 0.3 μM
Assay Metric: Cell viability at 0.3 μM (%)
Quick note: give the figure in %, leave out the unit.

Examples with answers:
INSERT INTO measurements (compound, observed_value) VALUES
  ('O=C1c2ccccc2C(=S)N1C1CC=CCC1 (stereo not shown)', 99),
  ('S=C1CCCC(=S)N1', 99),
  ('O=C1CCCC(=S)N1', 86),
  ('S=C1NC(=S)c2ccccc21 [Compound 224, dithiophthalimide]', 83),
  ('COC(=O)CCC(C(=O)OC)N1C(=O)c2ccccc2C1=S (stereo not shown)', 96),
  ('O=C(O)CCC(C(=O)O)N1C(=O)c2ccccc2C1=S (stereo not shown)', 93),
  ('O=C1NC(=S)CCC1N1C(=O)c2ccccc2C1=O (stereo not shown)', 96),
  ('O=C1CCC(N2C(=O)c3ccccc3C2=S)C(=O)N1 (stereo not shown)', 94),
  ('COC(=O)CCC(C(=O)OC)N1C(=S)c2ccccc2C1=S (stereo not shown)', 89);

Here S=C1c2ccccc2C(=S)N1C1CC=CCC1 (stereo not shown) was tested on PBMC, and its Cell viability at 0.3 μM came to 96

----------
# Cell viability at 3 μM values compiled below
- Test system: PBMC
- Assay Protocol: Cellular viability of PBMCs by MTS assay
- Assay type: cell-based, human
- Settings: 3 μM
Quick note: give the figure in %, leave out the unit.

Examples with answers:
INSERT INTO measurements (compound, unit_label, observed_value) VALUES
  ('COC(=O)CCC(C(=O)OC)N1C(=S)c2ccccc2C1=S (stereo not drawn)', '%', 86),
  ('O=C(O)CCC(C(=O)O)N1C(=O)c2ccccc2C1=S (stereo not drawn)', '%', 93);

Here `O=C1CCCC(=S)N1` was tested on PBMC, and its Cell viability at 3 μM came to 84

----------
- System: PBMC
- Assay Protocol: Cellular viability of PBMCs by MTS assay
- Type: cell-based, human
Assay Metric: Toxicity / cytotoxicity (in words)

INSERT INTO measurements (molecule, assay_metric, observed_value) VALUES
  ('O=C1NC(=S)CCC1N1C(=O)c2ccccc2C1=S (stereo not shown) [Compound 215]', 'Toxicity / cytotoxicity (in words)', 'without toxicity'),
  ('COC(=O)CCC(C(=O)OC)N1C(=O)c2ccccc2C1=S (stereo not shown) [Compound 208]', 'Toxicity / cytotoxicity (in words)', 'without toxicity'),
  ('S=C1c2ccccc2C(=S)N1C1CC=CCC1 (stereo not shown) [Compound 222]', 'Toxicity / cytotoxicity (in words)', 'some toxicity at 30 μM'),
  ('O=C1c2ccccc2C(=S)N1C1CC=CCC1 (stereo not shown) [Compound 223]', 'Toxicity / cytotoxicity (in words)', 'some toxicity at 30 μM');
